Hey, just so you know, these numbers are from ChEMBL document CHEMBL1141083.

Please provide measured Kb for the entries that follow.
molecular target: Calcitonin gene-related peptide type 1 receptor (Homo sapiens, UniProt O60894+Q16602); experiment: Antagonistic activity against calcitonin gene related peptide receptor determined by measuring the formation of cyclic AMP in SK-N-MC cells; format: functional, cell-based; conditions: read-out: pA2 (converted)
Sequence (Q16602 whole entry, one chain of several): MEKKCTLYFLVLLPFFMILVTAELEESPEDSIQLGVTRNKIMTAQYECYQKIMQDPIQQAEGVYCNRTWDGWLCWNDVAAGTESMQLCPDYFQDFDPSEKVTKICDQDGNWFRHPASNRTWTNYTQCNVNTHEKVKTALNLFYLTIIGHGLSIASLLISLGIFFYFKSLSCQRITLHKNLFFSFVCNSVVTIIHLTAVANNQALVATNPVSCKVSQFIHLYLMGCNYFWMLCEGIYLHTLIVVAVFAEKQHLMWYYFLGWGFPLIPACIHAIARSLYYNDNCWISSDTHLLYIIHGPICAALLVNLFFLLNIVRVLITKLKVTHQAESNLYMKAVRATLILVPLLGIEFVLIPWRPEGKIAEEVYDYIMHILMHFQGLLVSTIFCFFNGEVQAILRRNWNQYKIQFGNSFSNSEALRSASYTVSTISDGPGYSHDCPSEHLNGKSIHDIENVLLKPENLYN
Field: numeric (nM). Do not append units.

// query Can you share its Kb? I mean this molecule: NCCCC[C@@H](NC(=O)[C@H](Cc1cc(Br)c(O)c(Br)c1)NC(=O)N1CCC(n2c(=O)oc3ccccc32)CC1)C(=O)N1CCN(c2ccncc2)CC1
// result 10

// query Try NCCCC[C@@H](NC(=O)[C@H](Cc1cc(Br)c(O)c(Br)c1)NC(=O)N1CCC(n2c(O)nc3ccccc32)CC1)C(=O)N1CCN(c2ccncc2)CC1 next.
// result 0.0794

// query Try COc1cccc(CCNC(=O)N[C@@H](Cc2cc(Br)c(O)c(Br)c2)C(=O)N[C@H](CCCCN)C(=O)N2CCN(c3ccncc3)CC2)c1 next.
// result 126

// query Try NCCCC[C@@H](NC(=O)[C@H](Cc1cc(Br)c(O)c(Br)c1)NC(=O)N1CCC(N(C(N)=O)c2ccccc2)CC1)C(=O)N1CCN(c2ccncc2)CC1 next.
// result 0.794
